Target: SARS-CoV-2 spike RBD (Wuhan-Hu-1) (Severe acute respiratory syndrome …, UniProt P0DTC2)
Experiment: SPR
Quick rule for you: Kd under 9 nM gets criterion met, anything else gets criterion not met.

Would you please look over these solved cases?
Q) Determine if COVIC-141 (antibody, V domains shown) VH: QVQLQESGPGLVKPSQTLSLTCTVSGGSISSGGYYWSWIRQHPGKGLEWIGYIYYSGNTYYNPSLKSRVTMSVDTSKNQFSLKLTSVTAADTAVYYCASTARPLTNAEYFQHWGQGTLVTVSS VL: DIQLTQSPGTLSLSPGERATLSCRASQSVSSSYLAWYQQKPGQAPRLLIYGTSSRATGIPDRFSGSGSGTDFTLTISRLEPEDFAVYYCQQYRTFGQGTKVEIK shows Kd strictly lower than 9 nM.
A) criterion not met

Q) Please let me know if COVIC-307 (antibody, V domains shown) VH: QVQLVQSGAEVKKPGSSVKVSCKASGGTFGISWVRQAPGQGLEWMGRIIPILGTANHAQKFQGRVTITADKSTGTVYMELSSLRSEDTAVYYCARDGDSGSYYETLGFDYWGQGTLVTVSS VL: QSALTQPPSASGSPGQSVTISCTGTSSDVGGYNYVSWYQQHPGKAPKLMIYEVNKRPSGVPDRFSGSKSGNTASLTVSGLQAEDEADYYCSSYAGSNNLVFGGGTKLTVL shows Kd below 9 nM.
A) criterion met

Q) Does the reported Kd of COVIC-172 (antibody, V domains shown) VH: QVQLVESGGDVVQPGRSLRLSCAASGFTFSRYGMHWVRQAPGKGLEWVAVISYDGSDKYYADSVKGRFTISRDNSKNTLYLQMNSLRAEDTAVYYCAKQLPLYYYYYGMDVWGQGTTVTVSS VL: AIQLTQSPSSLSASVGDRVTITCRASQGISSALAWYQQKPGKAPNLLIYDASSLESGVPSRFSGSGSGTDFTLTISSLQPEDFATYYCQQFNIYPHTFGPGTKVDIKR stay below 9 nM?
A) criterion not met

More entries:
Q) Is it true that Kd reported for COVIC-385 (antibody, V domains shown) VH: EVQLVESGGGLVQPGGSLRLSCKASGISVAPHAVTWVRQAPGKGLEWIGVIASNADTYYASWAKGRFTISRDNSKNTLYLQMNSLRAEDTAVYYCARHPGSAGYGYTYYYAMDPWGQGTLVTVSS VL: DIQMTQSPSSLSASVGDRVTITCQASERVFYGIDWYQQKPGKAPKLLIYGASALWHGVPSRFSGSGSGTDYTLTISSLQPEDFATYYCQQGYMVPIGFGGGTKVEIK is less than 9 nM?
A) criterion met

Q) Lab note: confirm whether the reported Kd for this binder is below 9 nM, equality not counting. binder: COVIC-334 (antibody, V domains shown) VH: QMQLVQSGPEVKKPGTSVKVSCKASGFTFSSSAVQWVRQARGQGLEWIGWIVVGSGNANYAQKLQERVSITRDMSTSTAYMELSSLRPEDTAVYYCAAPHCSRTICHDGFDMWGQGTMVTVSS VL: EIVLTQSPGTLSLSPGERATLSCRASQSVRSSYLAWYQQKPGQAPRLLMFVASSRATGIPDRFSGSGSGTDFTLTISRLEPEDFAVYYCQQYDTSPWTFGQGTKVEIK
A) criterion met

Values compiled from paper PMC12014896.
